Sourced from paper PMC10572522

test system: E. faecium (NTCC 12697); test: Antimicrobial susceptibility assay (MIC/MBC); type: cell-based, Enterococcus faecium
Residues, ends and D or L forms follow the SMILES beside them.
quantity_name: MBC (µM)
Answers are plain numbers, in µM.

compound	tested_system	MBC (µM)
CC[C@H](C)[C@H](NC(=O)[C@H](CCCCN)NC(=O)[C@@H]1CCCN1C(=O)[C@H](CC(C)C)NC(=O)[C@@H](N)Cc1ccccc1)C(=O)N[C@@H](CC(C)C)C(=O)N[C@@H](CCCNC(=N)N)C(=O)N[C@@H](CCCCN)C(=O)N[C@H](C(=O)N[C@H](C(=O)N[C@H](C(=O)N[C@@H](C)C(=O)N[C@@H](CC(C)C)C(N)=O)[C@@H](C)O)C(C)C)[C@@H](C)CC [Crabrolin-4K, FLPKILRKIVTAL-NH2] (H-FLPKILRKIVTAL-NH2)	E. faecium (NTCC 12697)	64

Now for the compound whose MBC we want.
[Q] Looking for the measured MBC of CC[C@H](C)[C@H](NC(=O)[C@H](CCCNC(=N)N)NC(=O)[C@@H]1CCCN1C(=O)[C@H](CC(C)C)NC(=O)[C@@H](N)Cc1ccccc1)C(=O)N[C@@H](CC(C)C)C(=O)N[C@@H](CCCNC(=N)N)C(=O)N[C@@H](CCCCN)C(=O)N[C@H](C(=O)N[C@H](C(=O)N[C@@H](CCCNC(=N)N)C(=O)N[C@@H](C)C(=O)N[C@@H](CC(C)C)C(N)=O)C(C)C)[C@@H](C)CC [Crabrolin-TR, FLPRILRKIVRAL-NH2] (H-FLPRILRKIVRAL-NH2) , can you help?
[A] 8
